Where do these numbers come from? They come from ChEMBL document CHEMBL4823254.

Assay: Cmax in C57BL/6J mouse brain at 15 mg/kg, ip
Type: ADME, organism-based
Design: route intraperitoneal, dose 15 mg/kg
measurement_type: Cmax (ng/mL)
Response body: numeric value in ng/mL, unit text excluded.

# input compound: "NC(=O)c1ccc2c(c1)CCCN2Cc1ccc(C(=O)NO)cc1" ; wanted: its Cmax 223

---

Test: Half life in mouse liver s9 fraction
Assay type: ADME, subcellular
measurement_type: half-life (h)
Response body: numeric value in h, unit text excluded.

# input compound: "NC(=O)c1ccc2c(c1)CCCN2Cc1ccc(C(=O)NO)cc1" ; wanted: its half-life 3.55

---

Molecular target: Histone deacetylase 8 (Homo sapiens, UniProt Q9BY41)
pIC50: −log10 of the molar value.
Note to self: values exactly at 6 are T. So pIC50 at or above 6 is T, below is F.

Reference set, count: 2
CCCc1ccc2c(c1)CCC(=O)N2Cc1ccc(C(=O)NO)cc1: F
O=C(NO)c1ccc(CN2CCCc3cc(Cl)ccc32)cc1: F

Is reported pIC50 greater than or equal to 6 here: "NC(=O)c1ccc2c(c1)CCCN2Cc1ccc(C(=O)NO)cc1" T

---

Assay: Protein binding in human plasma
Type: ADME, cell-free
Settings: read-out: PPB (converted)
measurement_type: fraction unbound
Answer with a number only.

# input molecule: "NC(=O)c1ccc2c(c1)CCCN2Cc1ccc(C(=O)NO)cc1" ; wanted: its fraction unbound 0.142

---

Test: Half life in liver microsomes
Format: ADME, Microsome
measurement_type: half-life

# input compound: "O=C(NO)c1ccc(CN2CCCc3cc(Cl)ccc32)cc1" ; wanted: its half-life < 30 min

---

Target: Protein deacetylase HDAC6 (Homo sapiens)
Sequence (Q9UBN7 whole entry): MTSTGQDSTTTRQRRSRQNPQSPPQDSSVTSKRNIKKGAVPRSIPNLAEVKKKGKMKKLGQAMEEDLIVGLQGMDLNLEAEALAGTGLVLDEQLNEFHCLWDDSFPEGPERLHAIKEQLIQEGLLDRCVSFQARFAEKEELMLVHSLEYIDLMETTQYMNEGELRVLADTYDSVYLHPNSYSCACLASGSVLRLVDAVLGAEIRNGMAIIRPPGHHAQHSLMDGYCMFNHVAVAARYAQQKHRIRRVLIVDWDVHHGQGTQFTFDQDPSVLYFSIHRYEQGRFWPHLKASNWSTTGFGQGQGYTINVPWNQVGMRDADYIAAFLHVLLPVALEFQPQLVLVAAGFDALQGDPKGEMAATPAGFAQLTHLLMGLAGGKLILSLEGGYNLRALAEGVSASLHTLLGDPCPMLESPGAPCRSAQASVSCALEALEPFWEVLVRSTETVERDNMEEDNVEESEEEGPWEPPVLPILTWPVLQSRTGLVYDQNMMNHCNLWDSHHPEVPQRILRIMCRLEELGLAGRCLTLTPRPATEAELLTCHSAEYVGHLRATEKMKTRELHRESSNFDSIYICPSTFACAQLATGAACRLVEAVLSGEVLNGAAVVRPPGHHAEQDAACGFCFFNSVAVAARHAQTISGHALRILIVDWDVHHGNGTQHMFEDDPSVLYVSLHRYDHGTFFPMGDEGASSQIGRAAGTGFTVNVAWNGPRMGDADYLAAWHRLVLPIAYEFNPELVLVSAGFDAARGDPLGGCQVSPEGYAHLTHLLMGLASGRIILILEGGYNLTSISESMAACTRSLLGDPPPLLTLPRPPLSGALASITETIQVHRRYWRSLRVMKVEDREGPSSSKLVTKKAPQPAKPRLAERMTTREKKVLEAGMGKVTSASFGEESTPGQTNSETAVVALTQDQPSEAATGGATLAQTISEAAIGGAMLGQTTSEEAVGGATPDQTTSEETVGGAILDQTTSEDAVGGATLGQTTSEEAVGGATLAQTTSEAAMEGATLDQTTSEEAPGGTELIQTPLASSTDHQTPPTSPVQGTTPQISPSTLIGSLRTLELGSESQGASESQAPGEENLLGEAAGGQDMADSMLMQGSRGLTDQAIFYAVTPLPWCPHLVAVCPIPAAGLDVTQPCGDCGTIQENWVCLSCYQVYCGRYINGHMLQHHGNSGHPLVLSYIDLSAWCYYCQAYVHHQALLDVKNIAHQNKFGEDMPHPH
measurement_type: IC50
Include the unit after the number when you answer.

# input compound: "NC(=O)c1ccc2c(c1)CCCN2Cc1ccc(C(=O)NO)cc1" ; wanted: its IC50 1370 nM

---

Protein target, amino acids: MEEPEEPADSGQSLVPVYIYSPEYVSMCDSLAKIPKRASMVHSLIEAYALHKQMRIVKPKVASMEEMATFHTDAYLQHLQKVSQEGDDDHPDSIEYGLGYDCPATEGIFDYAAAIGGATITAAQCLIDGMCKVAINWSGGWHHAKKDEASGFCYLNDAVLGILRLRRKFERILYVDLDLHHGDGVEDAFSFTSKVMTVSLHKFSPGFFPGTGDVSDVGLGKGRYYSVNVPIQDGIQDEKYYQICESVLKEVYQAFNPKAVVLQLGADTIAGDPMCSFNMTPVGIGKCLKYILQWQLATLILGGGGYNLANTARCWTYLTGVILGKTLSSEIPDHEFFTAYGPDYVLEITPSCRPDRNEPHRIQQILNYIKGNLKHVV
measurement_type: IC50 (nM)
Response body: numeric value in nM, unit text excluded.

Worked examples follow.
N#Cc1ccc2c(c1)CCCN2Cc1ccc(C(=O)NO)cc1: 1490
NC(=O)c1ccc2c(c1)CCCCN2Cc1ccc(C(=O)NO)cc1: 1060

# input molecule: "O=C(NO)c1ccc(CN2C(=O)CCc3cc(C4CC4)ccc32)cc1" ; wanted: its IC50 1500
